system: PANC-1; assay: MTT cell viability, PANC-1 cells; type: cell-based, human; conditions: PANC-1 pancreatic ductal adenocarcinoma, p53 Mutant
observable: pEC50
The value called pEC50 is obtained by taking minus log10 of the concentration in mol/L.

Kindly note: PANC-1, COc1ccc(C2=N[C@@H](c3ccc(Cl)cc3)[C@@H](c3ccc(Cl)cc3)N2C(=O)N2CCNC(=O)C2)c(OC(C)C)c1 [Nutlin 3A] , pEC50 value reported: 4.38

---

tested on: MIA PaCa-2; assay: MTT cell viability, MIA PaCa-2 cells; assay type: cell-based, human; conditions: MIA PaCa-2 pancreatic ductal adenocarcinoma, p53 Mutant
Bridge positions count the residues as written; N and C are the ends. Square brackets hold non-standard residues; d marks the D form. Peptide text beside a SMILES is read from it.
observable: EC50

Reported EC50 ( N=C(N)NCCC[C@@H]1NC(=O)[C@@H](CCCNC(=N)N)NC(=O)[C@H](CCCCN)NC(=O)[C@@H](N)CCCCNC(=O)CC[C@@H](C(=O)O)NC(=O)[C@@H](CCCNC(=N)N)NC(=O)[C@H](CCCNC(=N)N)NC(=O)[C@@H](CCCCN)NC(=O)[C@H](CCCCN)NC(=O)[C@@H](CCCNC(=N)N)NC(=O)CNC(=O)[C@@H](CCCNC(=N)N)NC1=O [cTAT] (H-KK[dR]R[dR]G[dR]K[dK]R[dR]E-OH; lactam 1-12; N-terminus and C-terminus assumed) ) = > 100 µM

Summary for this molecule, COc1ccc(C2=N[C@@H](c3ccc(Cl)cc3)[C@@H](c3ccc(Cl)cc3)N2C(=O)N2CCNC(=O)C2)c(OC(C)C)c1 : EC50 is > 50 µM

---

system: SW480; experiment: MTT cell viability, SW480 cells; format: cell-based, human; settings: SW480 colon adenocarcinoma, p53 Mutant
observable: pEC50
Scale note: pEC50 = -log10(concentration in M).

Input COc1ccc(C2=N[C@@H](c3ccc(Cl)cc3)[C@@H](c3ccc(Cl)cc3)N2C(=O)N2CCNC(=O)C2)c(OC(C)C)c1 . Output pEC50: 4.23

---

tested on: HPAF-II; assay: MTT cell viability, HPAF-II cells; format: cell-based, human; settings: Homo sapiens, HPAF-II pancreatic ductal adenocarcinoma, p53 Mutant
observable: pEC50
Hey, just a heads up that pEC50 is the negative log base 10 of the concentration in molar.

Reported pEC50 ( CC(C)(C)C[C@@H]1N[C@@H](C(=O)N[C@H]2CC[C@H](O)CC2)[C@H](c2cccc(Cl)c2F)[C@]12C(=O)Nc1cc(Cl)ccc12 ) = 5.17

---

tested on: ES-2; assay: MTT cell viability, ES-2 ovarian cells; assay type: cell-based, human; conditions: p53 Mutant
observable: EC50 (µM)
All answers are understood in µM, so give the number only.

Recorded EC50 (compound COc1ccc(C2=N[C@@H](c3ccc(Cl)cc3)[C@@H](c3ccc(Cl)cc3)N2C(=O)N2CCNC(=O)C2)c(OC(C)C)c1 ): 92.3

---

test system: Caco-2; test: MTT cell viability, Caco-2 cells; assay type: cell-based, human; conditions: Caco-2 colon adenocarcinoma, p53 Mutant
Bridge positions count the residues as written; N and C are the ends. Square brackets hold non-standard residues; d marks the D form. Peptide text beside a SMILES is read from it.
Give measured EC50 for each item. Keep answers brief.

For this molecule ( COc1ccc(C2=N[C@@H](c3ccc(Cl)cc3)[C@@H](c3ccc(Cl)cc3)N2C(=O)N2CCNC(=O)C2)c(OC(C)C)c1 ), measured EC50 is > 50 µM

Entry under test: N=C(N)NCCC[C@@H]1NC(=O)[C@@H](CCCNC(=N)N)NC(=O)[C@H](CCCCN)NC(=O)[C@@H](N)CCCCNC(=O)CC[C@@H](C(=O)O)NC(=O)[C@@H](CCCNC(=N)N)NC(=O)[C@H](CCCNC(=N)N)NC(=O)[C@@H](CCCCN)NC(=O)[C@H](CCCCN)NC(=O)[C@@H](CCCNC(=N)N)NC(=O)CNC(=O)[C@@H](CCCNC(=N)N)NC1=O [cTAT] (H-KK[dR]R[dR]G[dR]K[dK]R[dR]E-OH; lactam 1-12; N-terminus and C-terminus assumed) . Its EC50 was > 100 µM
